Target: mTOR (Homo sapiens, UniProt P42345)
Assay: mTOR activity (no method described)
Assay type: biochemical
quantity: mTOR (µM)

>>> assayvalue("CCNC(=O)c1cc(-c2ccc3ncc4ccc(=O)n(-c5ccc(C(=O)N6CCOCC6)cc5)c4c3c2)ccc1Cl [Compound 150]")
7.873

a = COc1cc(C(=O)NCCCN2CCC(C)CC2)ccc1-n1c(=O)ccc2cnc3ccc(-c4ccc(Cl)cc4)cc3c21 [Compound 255]
b = Cc1cc(C(=O)NC2CC2)ccc1-n1c(=O)ccc2cnc3ccc(-c4ccc(F)cc4)cc3c21 [Compound 223]
Lookup: Look at a and b . Which one has the lower recorded mTOR number? Output the label that corresponds to your choice.
Found: b
(b: 7.119 µM, a: 12.95 µM)

P = Cc1cc(C(=O)NCCN(C)c2ccccc2)ccc1-n1c(=O)ccc2cnc3ccc(-c4ccc(Cl)cc4)cc3c21 [Compound 292]
Q = Cc1cc(C(=O)NCCCN2CCN(C)CC2)ccc1-n1c(=O)ccc2cnc3ccc(-c4ccc(Cl)cc4)cc3c21 [Compound 282]
R = Cc1cc(C(=O)NC2CC2)ccc1-n1c(=O)ccc2cnc3ccc(-c4ccc(Cl)c(O)c4)cc3c21 [Compound 225]
S = CC(C)(O)CNC(=O)c1ccc(-n2c(=O)ccc3cnc4ccc(-c5ccc(Cl)cc5)cc4c32)cc1 [Compound 311]
Lookup: Order the entries by their reported mTOR, beginning at the minimum. Submit the labels in the order that the ranking request calls for.
Found: S, R, Q, P
(S: 0.1982 µM, R: 0.9169 µM, Q: 4.536 µM, P: 15.56 µM)

I = O=C(NC1COC1)c1ccc(-n2c(=O)ccc3cnc4ccc(-c5ccc(Cl)cc5)cc4c32)cc1 [Compound 231]
II = N#Cc1cccc(-n2c(=O)n(CCO)c3cnc4ccc(-c5ccc(Cl)cc5)cc4c32)c1 [Compound 404]
Lookup: Field: lower mTOR | Options: I / II Pick one and reply with its label.
Found: I
(I: 0.8505 µM, II: 50 µM)

====

Test: PAMPA permeability
Type: in vitro ADME
Settings: PAMPA
Parameter PAMPA Permeability (×10^6 cm/s): see the listing below.

Illustrative cases are given below, each with its answer.
>>> assayvalue("CS(=O)(=O)c1ccc(-n2c(=O)ccc3cnc4ccc(-c5ccc(N)nc5)cc4c32)cc1")
"<11.8 ×10^6 cm/s"
>>> assayvalue("COC(=O)CN1Cc2cc(-n3c(=O)ccc4cnc5ccc(-c6ccc(CN(C)C)cc6)cc5c43)ccc2C1=O")
"47.8 ×10^6 cm/s"

Lookup: I have this molecule here, Nc1ccc(-c2ccc3ncc4ccc(=O)n(-c5ccc6c(c5)CNC6=O)c4c3c2)cn1 , and I need its recorded PAMPA Permeability (×10^6 cm/s).
Found: 2 ×10^6 cm/s

Lookup: Endpoint output: PAMPA Permeability (×10^6 cm/s) of CN(C)Cc1ccc(-c2ccc3ncc4ccc(=O)n(-c5ccc6c(c5)CCC(=O)N6)c4c3c2)cc1 . Value?
Found: 40.53 ×10^6 cm/s

====

Assay: Microsomal stability (rat)
Format: in vitro ADME
Conditions: rat microsomes
quantity: Microsomal Stability (rat) T1/2

# annotated cases, reported Microsomal Stability (rat) T1/2 shown
>>> assayvalue("O=C(c1ccc(-n2c(=O)ccc3cnc4ccc(-c5ccc(CO)cc5)cc4c32)cc1)N1CCOCC1")
">30.0 min"
>>> assayvalue("O=C(NC1CN(CCO)C1)c1ccc(-n2c(=O)ccc3cnc4ccc(-c5ccc(Cl)cc5)cc4c32)cc1")
">30 min"
>>> assayvalue("NC1(c2ccc(-c3ccc4ncc5ccc(=O)n(-c6ccc7c(c6)CNC7=O)c5c4c3)cc2)CC1")
">30 min"
>>> assayvalue("CN(C)Cc1ccc(-c2ccc3ncc4ccc(=O)n(-c5ccc6c(c5)CCC(=O)N6)c4c3c2)cc1")
">30.00 min"
>>> assayvalue("Cc1cc(C(=O)NC2CCN(CCN(C)C)CC2)ccc1-n1c(=O)ccc2cnc3ccc(-c4ccc(Cl)cc4)cc3c21")
">30 min"

Lookup: I'd like to know its Microsomal Stability (rat) T1/2. The compound in question is O=C(c1ccc(-n2c(=O)ccc3cnc4ccc(-c5ccc(Cl)cc5)cc4c32)cc1)N1CCC1
Found: <1.0 min

Lookup: Quick check: Microsomal Stability (rat) T1/2 of CN(C)Cc1ccc(-c2ccc3ncc4ccc(=O)n(-c5ccc(C(=O)NC6CC6)cc5)c4c3c2)cc1 ?
Found: >30.0 min

Lookup: I'd like to know its Microsomal Stability (rat) T1/2. The compound in question is O=C(c1ccc(-n2c(=O)ccc3c[n+]([O-])c4ccc(-c5ccc(Cl)cc5)cc4c32)cc1)N1CCOCC1
Found: >30.0 min

Lookup: Need Microsomal Stability (rat) T1/2 of O=C(c1ccc(-n2c(=O)ccc3cnc4ccc(Br)cc4c32)cc1)N1CCOCC1 , thanks.
Found: >30.0 min
